Target: WA peptide (Octet assay of PS557 variants)
Assay: Octet (BLI), peptide on sensor, response after 200 s association
measured.metric: Octet response (nm)

PS829 (designed binder) MPTAASATESAIEDTPAPARPEVDGRTKPKRQPRYHVVLWDDDDHTYQYVVVMLQSLFGHPRERGYRLAKEMDTLGRVIVLTTTREHAELKRDQIHAFGYDRLLARSKGSMKASIEAEE: 0.625

(P) PS796 (designed binder) MPTAASATESAIEDTPAPARPEVDGRTKPKRQPRYHVVLWDDDDHTYQYVVVMLQSLFGHPPERGYRLAKEMDTQGRVIVLTTTREHAELKRDQIHAFGYDRLLARSKGSMKASIEAEE
(Q) PS847 (designed binder) MPTAASATESAIEDTPAPARPEVDGRTKPKRQPRYHVVLWDDDDHTYQYVVVMLRSLFGHPPERGYRLAKEMDTQGRVIVLTTTREHAELKRDQIHAFGYDRLLARSKGSMKASIEAEE
(R) PS801/PS814 (designed binder) MPTAASATESAIEDTPAPARPEVDGRTKPKRQPRYHVVLWNDDDHTYQYVVVMLQSLFGHPPKRGYRLAKEVDTQGRVIVLTTTREHAELKRDQIHAFGYDRLLARSKGSMKASIEAEE
(S) PS808 (designed binder) MPTAASATESAIEDTPAPARPEVDGRTKPKRQPRYHVVLWNDDDHTYQYVVVMLRSLFGHPPERGYRLAKEVDTQGRVIVLTTTREHAELKRDQIHAFGYDRLLARSKGSMKASIEAEE
# input # sort list by recorded Octet response, greatest to least Returns: the labels arranged in the requested order.
# output P, R, Q, S
(P: 0.761 nm, R: 0.0148 nm, Q: 0.0098 nm, S: 0.00243 nm)
